# pIC50 per record follows
target: NOD1 (Homo sapiens, UniProt Q9Y239); experiment: iE-DAP-stimulated IL-8 release in 293/hNOD1 cells; format: cell-based; conditions: HEK293 stably expressing human NOD1, IL-8 released into medium; read-out: IC50 293/hNOD1 iE-DAP
Sequence (Q9Y239 whole entry): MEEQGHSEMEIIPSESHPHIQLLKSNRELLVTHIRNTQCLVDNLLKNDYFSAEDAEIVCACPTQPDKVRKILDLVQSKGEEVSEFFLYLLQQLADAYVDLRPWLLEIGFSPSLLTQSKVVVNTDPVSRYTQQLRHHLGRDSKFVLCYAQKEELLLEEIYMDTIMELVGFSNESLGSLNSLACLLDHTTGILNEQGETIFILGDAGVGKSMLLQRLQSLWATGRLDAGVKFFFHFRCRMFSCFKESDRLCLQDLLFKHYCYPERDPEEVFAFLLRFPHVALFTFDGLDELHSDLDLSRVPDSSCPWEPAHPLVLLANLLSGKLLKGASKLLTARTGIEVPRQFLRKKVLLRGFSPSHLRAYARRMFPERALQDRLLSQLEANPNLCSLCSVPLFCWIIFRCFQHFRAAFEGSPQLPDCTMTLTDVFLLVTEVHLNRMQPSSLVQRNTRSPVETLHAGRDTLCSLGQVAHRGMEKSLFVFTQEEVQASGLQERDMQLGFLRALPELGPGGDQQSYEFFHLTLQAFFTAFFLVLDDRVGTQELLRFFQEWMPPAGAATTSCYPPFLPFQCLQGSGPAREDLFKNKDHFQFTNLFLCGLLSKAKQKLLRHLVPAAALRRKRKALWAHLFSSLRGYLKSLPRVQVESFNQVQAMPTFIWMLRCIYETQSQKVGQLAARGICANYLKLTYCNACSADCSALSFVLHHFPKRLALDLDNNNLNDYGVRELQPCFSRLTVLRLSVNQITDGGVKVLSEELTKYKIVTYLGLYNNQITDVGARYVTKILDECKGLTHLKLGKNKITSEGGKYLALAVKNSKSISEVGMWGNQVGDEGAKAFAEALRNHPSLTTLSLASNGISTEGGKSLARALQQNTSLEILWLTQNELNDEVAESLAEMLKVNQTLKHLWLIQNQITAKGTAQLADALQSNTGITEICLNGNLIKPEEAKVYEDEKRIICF
# pIC50 is unitless: minus log10 of the molar concentration; print number only

Worked examples, 3 molecules total:
> print(dat)
                           structure.smiles  quantitative.readout
1  Cc1nc2ccccc2c(=O)n1-c1ccc(F)c(NS(=O)(=O)c2ccc(Cl)s2)c1                  6.15
2  CCc1ccc(S(=O)(=O)Nc2cccc(-n3c(C)nc4ccccc4c3=O)c2)s1                  4.82
3  CCc1ccc(S(=O)(=O)Nc2cc(-n3c(C)nc4ccccc4c3=O)ccc2F)s1                  6.00

# query: pIC50 of entry Cc1ccc(S(=O)(=O)Nc2cccc(C(=O)Nc3ccc4nc(C)sc4c3)c2)cc1
6.40

* * *

experiment: Chromatographic hydrophobicity index (Chrom log D); assay type: physicochemical; settings: pH 7.4
# chromatographic logD per record follows
The response must contain the number and no unit.

Worked examples, 5 compounds total:
> print(dat)
                           structure.smiles  quantitative.readout
1  Cc1nc2ccccc2c(=O)n1-c1ccc(F)c(NS(=O)(=O)c2cccs2)c1                  2.87
2  Cc1ccc(S(=O)(=O)Nc2cccc(C(=O)Nc3ccc4nc(C)sc4c3)c2)cc1                  4.89
3  Cn1c(=O)[nH]c(=O)c2c1nc(CCSc1ccccc1)n2Cc1ccccc1                  5.95
4  Cc1nc2ccccc2c(=O)n1-c1ccc(F)c(NS(=O)(=O)c2ccccc2F)c1                  3.24
5  Cc1nc2ccc(NC(=O)c3cccc(NS(=O)(=O)c4ccc(F)cc4)c3)cc2s1                  4.64

# query: chromatographic logD of entry O=C(Nc1ccc2c(c1)OCO2)c1cccc(NS(=O)(=O)c2ccc(Cl)cc2)c1
5.17

# query: chromatographic logD of entry CCc1ccc(S(=O)(=O)Nc2cc(-n3c(C)nc4ccccc4c3=O)ccc2F)s1
4.27

* * *

molecular target: UniProtKB Q9Y239; assay: iE-DAP-stimulated IL-8 release in 293/hNOD1 cells; assay type: cell-based; details: iE-DAP-stimulated IL-8 production in 293/hNOD1 cells; SAR figures; read-out: NOD1 XC50
MEASURED PARAMETER: IC50 (nM)
Numeric answer only, unit nM assumed.

> print(dat)
                           structure.smiles  display.unit  quantitative.readout
1  O=C(Nc1ccc2c(c1)OCO2)c1cccc(NS(=O)(=O)c2ccc(Cl)cc2)c1            nM                  3700

# query: IC50 of entry Cn1c(=O)[nH]c(=O)c2c1nc(SCCc1ccccc1)n2Cc1ccccc1
400

# query: IC50 of entry Cc1cc(=O)n(-c2ccc(Cl)c(NS(=O)(=O)c3ccccc3F)c2)c(C)n1
25000

# query: IC50 of entry Cc1nc2ccccc2c(=O)n1-c1ccc(F)c(NS(=O)(=O)c2cccs2)c1
2300

# query: IC50 of entry Cc1nc2ccccc2c(=O)n1-c1ccc(Cl)c(NS(=O)(=O)c2ccc3c(c2)OCCO3)c1
100

# query: IC50 of entry Cc1nc2ccccc2c(=O)n1-c1ccc(F)c(NS(=O)(=O)c2cc(Cl)ccc2Cl)c1
1200
